Biological target: T1, colFD-NL
T1 chain: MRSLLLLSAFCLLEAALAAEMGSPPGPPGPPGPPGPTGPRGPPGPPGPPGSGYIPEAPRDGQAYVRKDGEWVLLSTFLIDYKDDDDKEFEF
Assay: BRET
Details: chain shown with the change; in the ER of HEK293 cells; n = 4; parent: est. 100; read off a plot
measure: percent of parent

IN: # percent of parent lookup, item Hsp47-HT, P19324 Y353E (protein) AEVKKPLEAAAPGTAEKLSSKATTLAERSTGLAFSLYQAMAKDQAVENILLSPLVVASSLGLVSLGGKATTASQAKAVLSAEKLRDEEVHTGLGELLRSLSNSTARNVTWKLGSRLYGPSSVSFADDFVRSSKQHYNCEHSKINFRDKRSALQSINEWASQTTDGKLPEVTKDVERTDGALLVNAMFFKPHWDEKFHHKMVDNRGFMVTRSYTVGVTMMHRTGLYNYYDDEKEKLQMVEMPLAHKLSSLIILMPHHVEPLERLEKLLTKEQLKAWMGKMQKKAVAISLPKGVVEVTHDLQKHLAGLGLTEAIDKNKADLSRMSGKKDLYLASVFHATAFEWDTEGNPFDQDIEGREELRSPKLFYADHPFIFLVRDNQSGSLLFIGRLVRPKGDKMRDEL
OUT: 77%

IN: What about Hsp47-HT, P19324 I352L (protein) AEVKKPLEAAAPGTAEKLSSKATTLAERSTGLAFSLYQAMAKDQAVENILLSPLVVASSLGLVSLGGKATTASQAKAVLSAEKLRDEEVHTGLGELLRSLSNSTARNVTWKLGSRLYGPSSVSFADDFVRSSKQHYNCEHSKINFRDKRSALQSINEWASQTTDGKLPEVTKDVERTDGALLVNAMFFKPHWDEKFHHKMVDNRGFMVTRSYTVGVTMMHRTGLYNYYDDEKEKLQMVEMPLAHKLSSLIILMPHHVEPLERLEKLLTKEQLKAWMGKMQKKAVAISLPKGVVEVTHDLQKHLAGLGLTEAIDKNKADLSRMSGKKDLYLASVFHATAFEWDTEGNPFDQDLYGREELRSPKLFYADHPFIFLVRDNQSGSLLFIGRLVRPKGDKMRDEL ?
OUT: 92%

IN: Here is the next binder: Hsp47-HT, P19324 Y353F (protein) AEVKKPLEAAAPGTAEKLSSKATTLAERSTGLAFSLYQAMAKDQAVENILLSPLVVASSLGLVSLGGKATTASQAKAVLSAEKLRDEEVHTGLGELLRSLSNSTARNVTWKLGSRLYGPSSVSFADDFVRSSKQHYNCEHSKINFRDKRSALQSINEWASQTTDGKLPEVTKDVERTDGALLVNAMFFKPHWDEKFHHKMVDNRGFMVTRSYTVGVTMMHRTGLYNYYDDEKEKLQMVEMPLAHKLSSLIILMPHHVEPLERLEKLLTKEQLKAWMGKMQKKAVAISLPKGVVEVTHDLQKHLAGLGLTEAIDKNKADLSRMSGKKDLYLASVFHATAFEWDTEGNPFDQDIFGREELRSPKLFYADHPFIFLVRDNQSGSLLFIGRLVRPKGDKMRDEL
OUT: 88%
